# MEASUREMENT_TARGET: HDAC 9 (Homo sapiens, UniProt Q9UKV0)
# Sequence (Q9UKV0 whole entry): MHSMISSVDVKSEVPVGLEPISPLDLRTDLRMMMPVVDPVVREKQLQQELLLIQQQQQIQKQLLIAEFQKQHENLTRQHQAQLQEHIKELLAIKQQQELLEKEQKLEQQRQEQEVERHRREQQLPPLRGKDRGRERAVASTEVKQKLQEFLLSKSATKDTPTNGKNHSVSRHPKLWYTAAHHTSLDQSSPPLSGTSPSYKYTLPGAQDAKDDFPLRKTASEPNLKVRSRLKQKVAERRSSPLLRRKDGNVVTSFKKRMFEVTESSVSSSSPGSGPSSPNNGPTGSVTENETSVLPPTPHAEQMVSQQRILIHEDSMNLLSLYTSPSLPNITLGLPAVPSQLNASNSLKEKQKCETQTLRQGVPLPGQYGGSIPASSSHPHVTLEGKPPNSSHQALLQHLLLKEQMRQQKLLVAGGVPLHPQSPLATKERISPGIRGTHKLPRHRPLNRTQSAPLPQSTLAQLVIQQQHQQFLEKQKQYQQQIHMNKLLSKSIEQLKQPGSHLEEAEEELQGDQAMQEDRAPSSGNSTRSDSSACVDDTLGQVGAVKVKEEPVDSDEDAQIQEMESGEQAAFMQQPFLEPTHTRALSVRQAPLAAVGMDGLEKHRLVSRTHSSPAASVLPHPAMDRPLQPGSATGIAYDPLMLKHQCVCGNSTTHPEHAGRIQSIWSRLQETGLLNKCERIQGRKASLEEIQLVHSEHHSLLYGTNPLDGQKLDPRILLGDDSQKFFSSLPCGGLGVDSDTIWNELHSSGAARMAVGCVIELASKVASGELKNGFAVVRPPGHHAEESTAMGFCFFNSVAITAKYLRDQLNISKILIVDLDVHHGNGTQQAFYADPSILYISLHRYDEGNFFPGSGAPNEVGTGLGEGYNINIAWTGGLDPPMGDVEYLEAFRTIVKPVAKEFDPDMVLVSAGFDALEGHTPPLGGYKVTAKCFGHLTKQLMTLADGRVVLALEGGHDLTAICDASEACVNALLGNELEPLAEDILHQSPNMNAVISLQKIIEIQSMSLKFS
# DETAILS: 50 ug/ml
TEST_READOUT: HDAC 9 activity, % of water-treated controls (%)
The reply should contain only the number, in %.

Some solved cases for reference:
Per the reported HDAC 9 (Homo sapiens, UniProt Q9UKV0) data, CCCC(=O)NCCCCC(NC(=O)CCC)C(=O)[O-].CCCC(=O)NCCCCC(NC(=O)CCC)C(=O)[O-].[Ca+2] (stereo not shown) [Ca di-(di-n-butyryl lysinate), calcium di-(di-n-butyryl lysinate)] has HDAC 9 activity, % of water-treated controls of 242

Per the reported HDAC 9 (Homo sapiens, UniProt Q9UKV0) data, CCCC(=O)N[C@@H](CC(C)C)C(=O)[O-].CCCC(=O)N[C@@H](CC(C)C)C(=O)[O-].[Zn+2] [Zn di-(n-butyryl leucinate), Zinc di-(n-butyryl leucinate)] has HDAC 9 activity, % of water-treated controls of 44

Per the reported HDAC 9 (Homo sapiens, UniProt Q9UKV0) data, CCCC(=O)[O-].[Na+] [Sodium butyrate, reference compound] has HDAC 9 activity, % of water-treated controls of 55

Below: the item to evaluate.
Per the reported HDAC 9 (Homo sapiens, UniProt Q9UKV0) data, CCCC(=O)NCCCC[C@H](NC(=O)CCC)C(=O)[O-].CCCC(=O)NCCCC[C@H](NC(=O)CCC)C(=O)[O-].[Zn+2] [Zn di-(di-n-butyryl lysinate), Zinc di-(di-n-butyryl lysinate)] has HDAC 9 activity, % of water-treated controls of 25

###

Below: a set of entries, each annotated with reported HDAC 5 activity, % of water-treated controls.
# MEASUREMENT_TARGET: HDAC 5 (Homo sapiens)
# DETAILS: 50 ug/ml
The reply should contain only the number, in %.

Per the record, CCCC(=O)[O-].[Na+] [Sodium butyrate, reference compound] has HDAC 5 activity, % of water-treated controls of 38

Per the record, CCCC(=O)NCCCC[C@H](NC(=O)CCC)C(=O)[O-].CCCC(=O)NCCCC[C@H](NC(=O)CCC)C(=O)[O-].[Zn+2] [Zn di-(di-n-butyryl lysinate), Zinc di-(di-n-butyryl lysinate)] has HDAC 5 activity, % of water-treated controls of 65

Per the record, CCCC(=O)N[C@@H](CC(C)C)C(=O)[O-].CCCC(=O)N[C@@H](CC(C)C)C(=O)[O-].[Zn+2] [Zn di-(n-butyryl leucinate), Zinc di-(n-butyryl leucinate)] has HDAC 5 activity, % of water-treated controls of 91

Below: the item to evaluate.
Per the record, CCCC(=O)NCCCCC(NC(=O)CCC)C(=O)[O-].CCCC(=O)NCCCCC(NC(=O)CCC)C(=O)[O-].[Ca+2] (stereo not shown) [Ca di-(di-n-butyryl lysinate), calcium di-(di-n-butyryl lysinate)] has HDAC 5 activity, % of water-treated controls of 123

###

# MEASUREMENT_TARGET: HDAC2 (Homo sapiens)
# Sequence (Q92769 whole entry): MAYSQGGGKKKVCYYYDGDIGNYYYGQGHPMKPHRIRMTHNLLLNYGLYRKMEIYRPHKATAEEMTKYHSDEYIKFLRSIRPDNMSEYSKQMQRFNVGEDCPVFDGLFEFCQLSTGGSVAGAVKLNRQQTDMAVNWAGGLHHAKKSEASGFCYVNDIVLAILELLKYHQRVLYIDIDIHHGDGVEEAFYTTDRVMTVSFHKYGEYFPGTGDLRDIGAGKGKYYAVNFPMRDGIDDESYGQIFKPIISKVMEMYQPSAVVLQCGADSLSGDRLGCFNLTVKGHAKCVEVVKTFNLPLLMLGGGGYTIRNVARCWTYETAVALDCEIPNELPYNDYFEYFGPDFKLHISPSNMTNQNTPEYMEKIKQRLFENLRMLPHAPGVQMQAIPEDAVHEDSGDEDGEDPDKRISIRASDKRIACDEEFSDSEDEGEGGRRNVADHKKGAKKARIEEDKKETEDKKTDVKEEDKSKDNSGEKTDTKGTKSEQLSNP
# DETAILS: 50 ug/ml
Below: a set of entries, each annotated with reported HDAC 2 activity, % of water-treated controls.
The reply should contain only the number, in %.

Per the record, CCCC(=O)NCCCCC(NC(=O)CCC)C(=O)[O-].CCCC(=O)NCCCCC(NC(=O)CCC)C(=O)[O-].[Ca+2] (stereo not shown) [Ca di-(di-n-butyryl lysinate), calcium di-(di-n-butyryl lysinate)] has HDAC 2 activity, % of water-treated controls of 90

Others:
Per the record, CCCC(=O)[O-].[Na+] [Sodium butyrate, reference compound] has HDAC 2 activity, % of water-treated controls of 89

Per the record, CCCC(=O)NCCCC[C@H](NC(=O)CCC)C(=O)[O-].CCCC(=O)NCCCC[C@H](NC(=O)CCC)C(=O)[O-].[Zn+2] [Zn di-(di-n-butyryl lysinate), Zinc di-(di-n-butyryl lysinate)] has HDAC 2 activity, % of water-treated controls of 20

Per the record, CCCC(=O)N[C@@H](CC(C)C)C(=O)[O-].CCCC(=O)N[C@@H](CC(C)C)C(=O)[O-].[Zn+2] [Zn di-(n-butyryl leucinate), Zinc di-(n-butyryl leucinate)] has HDAC 2 activity, % of water-treated controls of 37

###

Below: a set of entries, each annotated with reported HDAC 6 activity, % of water-treated controls.
# MEASUREMENT_TARGET: HDAC6 (Homo sapiens)
# DETAILS: 200 ug/ml
The reply should contain only the number, in %.

Some solved cases for reference:
Per the record, CCCC(=O)NCCCCC(NC(=O)CCC)C(=O)[O-].CCCC(=O)NCCCCC(NC(=O)CCC)C(=O)[O-].[Ca+2] (stereo not shown) [Ca di-(di-n-butyryl lysinate), calcium di-(di-n-butyryl lysinate)] has HDAC 6 activity, % of water-treated controls of 134

Per the record, CCCC(=O)N[C@@H](CC(C)C)C(=O)[O-].CCCC(=O)N[C@@H](CC(C)C)C(=O)[O-].[Zn+2] [Zn di-(n-butyryl leucinate), Zinc di-(n-butyryl leucinate)] has HDAC 6 activity, % of water-treated controls of 17

Per the record, CCCC(=O)[O-].[Na+] [Sodium butyrate, reference compound] has HDAC 6 activity, % of water-treated controls of 92

Below: the item to evaluate.
Per the record, CCCC(=O)NCCCC[C@H](NC(=O)CCC)C(=O)[O-].CCCC(=O)NCCCC[C@H](NC(=O)CCC)C(=O)[O-].[Zn+2] [Zn di-(di-n-butyryl lysinate), Zinc di-(di-n-butyryl lysinate)] has HDAC 6 activity, % of water-treated controls of 19

###

# MEASUREMENT_TARGET: HDAC 5 (Homo sapiens, UniProt Q9UQL6)
# Sequence (Q9UQL6 whole entry): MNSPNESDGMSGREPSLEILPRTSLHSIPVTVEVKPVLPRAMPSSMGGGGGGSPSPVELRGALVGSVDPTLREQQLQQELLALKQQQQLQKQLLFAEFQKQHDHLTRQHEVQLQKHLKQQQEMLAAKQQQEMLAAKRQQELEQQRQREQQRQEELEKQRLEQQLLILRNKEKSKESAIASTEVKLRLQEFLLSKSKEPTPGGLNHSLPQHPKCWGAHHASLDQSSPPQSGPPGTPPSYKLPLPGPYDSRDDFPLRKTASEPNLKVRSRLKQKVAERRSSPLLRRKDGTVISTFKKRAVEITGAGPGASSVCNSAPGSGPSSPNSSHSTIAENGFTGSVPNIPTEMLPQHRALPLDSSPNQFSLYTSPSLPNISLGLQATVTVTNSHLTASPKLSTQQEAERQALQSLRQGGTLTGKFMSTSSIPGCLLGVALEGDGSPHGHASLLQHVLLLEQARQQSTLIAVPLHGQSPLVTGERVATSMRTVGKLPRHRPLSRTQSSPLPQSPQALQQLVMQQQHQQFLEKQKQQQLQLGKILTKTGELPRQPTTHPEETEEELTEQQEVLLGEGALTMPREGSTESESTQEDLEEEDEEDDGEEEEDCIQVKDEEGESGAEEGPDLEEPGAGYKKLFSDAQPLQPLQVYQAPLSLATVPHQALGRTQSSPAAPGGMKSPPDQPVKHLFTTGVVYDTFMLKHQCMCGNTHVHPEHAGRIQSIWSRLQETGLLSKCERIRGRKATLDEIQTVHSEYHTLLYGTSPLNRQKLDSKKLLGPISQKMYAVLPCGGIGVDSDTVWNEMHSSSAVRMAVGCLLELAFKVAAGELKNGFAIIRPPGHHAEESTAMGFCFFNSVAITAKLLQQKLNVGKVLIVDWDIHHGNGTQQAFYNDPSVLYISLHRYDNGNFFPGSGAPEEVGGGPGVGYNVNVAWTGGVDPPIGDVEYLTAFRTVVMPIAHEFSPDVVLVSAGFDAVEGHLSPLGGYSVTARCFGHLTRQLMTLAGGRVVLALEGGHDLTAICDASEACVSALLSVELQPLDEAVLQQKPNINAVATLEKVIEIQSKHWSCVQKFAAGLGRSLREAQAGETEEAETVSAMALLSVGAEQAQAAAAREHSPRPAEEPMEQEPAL
# DETAILS: 200 ug/ml
Below: a set of entries, each annotated with reported HDAC 5 activity, % of water-treated controls.
The reply should contain only the number, in %.

Per the record, CCCC(=O)NCCCCC(NC(=O)CCC)C(=O)[O-].CCCC(=O)NCCCCC(NC(=O)CCC)C(=O)[O-].[Ca+2] (stereo not shown) [Ca di-(di-n-butyryl lysinate), calcium di-(di-n-butyryl lysinate)] has HDAC 5 activity, % of water-treated controls of 88

Per the record, CCCC(=O)NCCCC[C@H](NC(=O)CCC)C(=O)[O-].CCCC(=O)NCCCC[C@H](NC(=O)CCC)C(=O)[O-].[Zn+2] [Zn di-(di-n-butyryl lysinate), Zinc di-(di-n-butyryl lysinate)] has HDAC 5 activity, % of water-treated controls of 17

Per the record, CCCC(=O)[O-].[Na+] [Sodium butyrate, reference compound] has HDAC 5 activity, % of water-treated controls of 15

Others:
Per the record, CCCC(=O)N[C@@H](CC(C)C)C(=O)[O-].CCCC(=O)N[C@@H](CC(C)C)C(=O)[O-].[Zn+2] [Zn di-(n-butyryl leucinate), Zinc di-(n-butyryl leucinate)] has HDAC 5 activity, % of water-treated controls of 26

###

# MEASUREMENT_TARGET: HDAC 9 (Homo sapiens, UniProt Q9UKV0)
# DETAILS: 200 ug/ml
TEST_READOUT: HDAC 9 activity, % of water-treated controls
Please format your answer as a value with the unit trailing.

Per the record, CCCC(=O)NCCCCC(NC(=O)CCC)C(=O)[O-].CCCC(=O)NCCCCC(NC(=O)CCC)C(=O)[O-].[Ca+2] (stereo not shown) [Ca di-(di-n-butyryl lysinate), calcium di-(di-n-butyryl lysinate)] has HDAC 9 activity, % of water-treated controls of 258%

Per the record, CCCC(=O)[O-].[Na+] [Sodium butyrate, reference compound] has HDAC 9 activity, % of water-treated controls of 57%

Per the record, CCCC(=O)NCCCC[C@H](NC(=O)CCC)C(=O)[O-].CCCC(=O)NCCCC[C@H](NC(=O)CCC)C(=O)[O-].[Zn+2] [Zn di-(di-n-butyryl lysinate), Zinc di-(di-n-butyryl lysinate)] has HDAC 9 activity, % of water-treated controls of 20%

Below: the item to evaluate.
Per the record, CCCC(=O)N[C@@H](CC(C)C)C(=O)[O-].CCCC(=O)N[C@@H](CC(C)C)C(=O)[O-].[Zn+2] [Zn di-(n-butyryl leucinate), Zinc di-(n-butyryl leucinate)] has HDAC 9 activity, % of water-treated controls of 22%

###

# MEASUREMENT_TARGET: HDAC6 (Homo sapiens)
# Sequence (Q9UBN7 1-1215): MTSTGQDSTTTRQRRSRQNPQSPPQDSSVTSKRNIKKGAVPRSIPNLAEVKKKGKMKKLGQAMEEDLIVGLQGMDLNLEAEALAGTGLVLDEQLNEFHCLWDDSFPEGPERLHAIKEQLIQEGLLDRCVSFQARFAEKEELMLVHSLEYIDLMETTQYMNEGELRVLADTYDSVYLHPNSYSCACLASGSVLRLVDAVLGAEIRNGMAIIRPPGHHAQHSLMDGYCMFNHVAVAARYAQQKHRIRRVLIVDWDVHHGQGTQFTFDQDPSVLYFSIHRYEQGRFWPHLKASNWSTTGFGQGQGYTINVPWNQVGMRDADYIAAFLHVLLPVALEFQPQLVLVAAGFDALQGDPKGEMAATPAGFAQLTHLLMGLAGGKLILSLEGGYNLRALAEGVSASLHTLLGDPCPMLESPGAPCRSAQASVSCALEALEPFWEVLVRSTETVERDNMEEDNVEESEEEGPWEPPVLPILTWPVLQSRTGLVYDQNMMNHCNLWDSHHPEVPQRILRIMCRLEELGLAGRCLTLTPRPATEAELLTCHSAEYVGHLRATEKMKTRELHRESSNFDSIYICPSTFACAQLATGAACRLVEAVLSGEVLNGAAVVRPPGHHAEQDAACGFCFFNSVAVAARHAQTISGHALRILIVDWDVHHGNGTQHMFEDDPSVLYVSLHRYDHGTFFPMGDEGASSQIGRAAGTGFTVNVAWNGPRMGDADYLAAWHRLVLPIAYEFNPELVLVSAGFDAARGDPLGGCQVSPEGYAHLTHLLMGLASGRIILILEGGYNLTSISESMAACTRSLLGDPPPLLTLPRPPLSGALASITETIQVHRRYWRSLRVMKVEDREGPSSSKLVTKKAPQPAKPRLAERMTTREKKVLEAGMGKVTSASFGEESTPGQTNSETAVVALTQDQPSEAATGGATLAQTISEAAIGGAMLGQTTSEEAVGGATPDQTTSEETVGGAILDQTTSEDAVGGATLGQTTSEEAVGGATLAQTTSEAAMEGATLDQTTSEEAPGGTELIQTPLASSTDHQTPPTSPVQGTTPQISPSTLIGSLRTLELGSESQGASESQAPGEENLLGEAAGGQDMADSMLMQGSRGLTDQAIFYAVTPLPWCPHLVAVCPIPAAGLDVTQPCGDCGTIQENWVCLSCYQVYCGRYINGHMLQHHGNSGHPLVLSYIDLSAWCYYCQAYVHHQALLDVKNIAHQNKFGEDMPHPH
# DETAILS: 100 ug/ml
Below: a set of entries, each annotated with reported HDAC 6 activity, % of water-treated controls.
The reply should contain only the number, in %.

Per the record, CCCC(=O)[O-].[Na+] [Sodium butyrate, reference compound] has HDAC 6 activity, % of water-treated controls of 110

Per the record, CCCC(=O)NCCCC[C@H](NC(=O)CCC)C(=O)[O-].CCCC(=O)NCCCC[C@H](NC(=O)CCC)C(=O)[O-].[Zn+2] [Zn di-(di-n-butyryl lysinate), Zinc di-(di-n-butyryl lysinate)] has HDAC 6 activity, % of water-treated controls of 21

Per the record, CCCC(=O)NCCCCC(NC(=O)CCC)C(=O)[O-].CCCC(=O)NCCCCC(NC(=O)CCC)C(=O)[O-].[Ca+2] (stereo not shown) [Ca di-(di-n-butyryl lysinate), calcium di-(di-n-butyryl lysinate)] has HDAC 6 activity, % of water-treated controls of 128

Below: the item to evaluate.
Per the record, CCCC(=O)N[C@@H](CC(C)C)C(=O)[O-].CCCC(=O)N[C@@H](CC(C)C)C(=O)[O-].[Zn+2] [Zn di-(n-butyryl leucinate), Zinc di-(n-butyryl leucinate)] has HDAC 6 activity, % of water-treated controls of 20
